Origin of measurements: patent US7071168B2

Tested on: bradykinin response of isolated guinea pig ileum
method notes: Anti-bradykinin activity on isolated guinea pig ileum
condition info: isolated guinea pig ileum; pD2 of bradykinin is 7.4; higher numbers indicate higher potency
value type: GPI: pA2 for bradykinin antagonist activity on isolated guinea pig ileum
Hey, just send me the number, nothing else.

Recorded GPI: pA2 for bradykinin antagonist activity on isolated guinea pig ileum, per entry:
Cc1ccc(CSCC(NC(=O)C=Cc2c(F)c(F)c(F)c(F)c2F)C(=O)NC2CC(C)(C)NC(C)(C)C2)cc1 (centres unmarked) [M456] :: 5.3
CC1(C)CC(NC(=O)[C@@H](Cc2ccc3ccccc3c2)NC(=NC2CCCCC2)NC2CCCCC2)CC(C)(C)N1 [M246] :: 5.7
COC(=O)CCCCCCCCC(=O)Nc1ccc(C=CC(=O)NC(Cc2csc3ccccc23)C(=O)NC2CC(C)(C)NC(C)(C)C2)cc1 (centres unmarked) [M506] :: 4.9
CC1(C)CC(NC(=O)[C@@H](NC(=NC2CCCCC2)NC2CCCCC2)C2Cc3ccccc3C2)CC(C)(C)N1 [M236] :: 4.7
CN(C(=O)C(Cc1ccc(OCc2c(Cl)cccc2Cl)cc1)NC(=O)C=Cc1c(F)c(F)c(F)c(F)c1F)C1CC(C)(C)N(C)C(C)(C)C1 (centres unmarked) [M622] :: 5.7
CC1(C)CC(NC(=O)C(Cc2ccc(NS(C)(=O)=O)cc2)NC(=O)C=Cc2c(F)c(F)c(F)c(F)c2F)CC(C)(C)N1 (centres unmarked) [M648] :: 5.0
CC1(C)CC(NC(=O)C(Cc2csc3ccccc23)NC(=O)C=Cc2cccs2)CC(C)(C)N1 (centres unmarked) [M476] :: 4.6
O=C(O)c1cc(NC(=O)C(Cc2ccc3ccccc3c2)NC(=NC2CCCCC2)NC2CCCCC2)cc(NC(=NC2CCCCC2)NC2CCCCC2)c1 (centres unmarked) [M92-4] :: 5.0

Qu. Specify GPI: pA2 for bradykinin antagonist activity on isolated guinea pig ileum for CN(C)c1ccc(C=CC(=O)NC(Cc2ccc3ccccc3c2)C(=O)NC2CC(C)(C)NC(C)(C)C2)cc1 (centres unmarked) [M324] and stop.
Ans. 5.2

Qu. Specify GPI: pA2 for bradykinin antagonist activity on isolated guinea pig ileum for CC1(C)CC(NC(=O)[C@@H](NC(=N)CCCCCCCCCCCCC(=N)N[C@H](C(=O)NC2CC(C)(C)NC(C)(C)C2)C2Cc3ccccc3C2)C2Cc3ccccc3C2)CC(C)(C)N1 [M280] and stop.
Ans. 5.2

Qu. Specify GPI: pA2 for bradykinin antagonist activity on isolated guinea pig ileum for O=C(O)c1cccc(NC(=O)C(Cc2ccc3ccccc3c2)NC(=NC2CCCCC2)NC2CCCCC2)c1 (centres unmarked) [M112] and stop.
Ans. 5.1

---

System: bradykinin response of isolated guinea pig ileum
method notes: Anti-bradykinin activity on isolated guinea pig ileum
condition info: isolated guinea pig ileum; pD2 of bradykinin is 7.4; higher numbers indicate higher potency
value type: GPI: pA2 for bradykinin antagonist activity on isolated guinea pig ileum
Hey, just send me the number, nothing else.

CC1(C)CC(NC(=O)C(Cc2cccnc2)NC(=O)C=Cc2c(F)c(F)c(F)c(F)c2F)CC(C)(C)N1 (stereo not drawn) :: 4.8
CC1(C)CC(NC(=O)[C@H](Cc2csc3ccccc23)NC(=N)CCCCCCCCCCCCC(=N)N[C@@H](Cc2csc3ccccc23)C(=O)NC2CC(C)(C)NC(C)(C)C2)CC(C)(C)N1 :: 5.8

Qu. Specify GPI: pA2 for bradykinin antagonist activity on isolated guinea pig ileum for CN(C(=O)C(Cc1ccc(OCc2c(Cl)cccc2Cl)cc1)NC(=O)C=Cc1cccnc1)C1CC(C)(C)NC(C)(C)C1 (stereo not drawn) and stop.
Ans. 4.8

---

Test system: SCLC strain SHP-77
method notes: Colorimetric tetrazolium (MTT) assay for cell survival, SCLC strain SHP-77
Type: cell-based, human
condition info: SCLC strain SHP-77 in vitro
value type: MTT: ED50 for killing of SCLC strain SHP-77 in vitro

Recorded MTT: ED50 for killing of SCLC strain SHP-77 in vitro, per entry:
CC1(C)CC(NC(=O)[C@H](Cc2c(F)c(F)c(F)c(F)c2F)NC(=NC2CCCCC2)NC2CCCCC2)CC(C)(C)N1 :: 32 µM
CN(C)c1ccc(CNC(=O)C(Cc2ccc(F)cc2)NC(=O)C=Cc2c(F)c(F)c(F)c(F)c2F)cc1 (centres unmarked) :: 47 µM
O=C(C=Cc1cccnc1)NC(Cc1ccc2ccccc2c1)C(=O)NC1CCCCC1 (centres unmarked) :: 22 µM
CC1(C)CC(NC(=O)C(Cc2ccc3ccccc3c2)NC(=O)OC(C)(C)C)CC(C)(C)N1 (centres unmarked) [M288] :: Inact
CN1CCN(NC(=O)C(Cc2ccc3ccccc3c2)NC(=O)C=Cc2c(F)c(F)c(F)c(F)c2F)CC1 (centres unmarked) :: 11 µM
CC1(C)C=C(C(=O)NCCNC(=O)C(Cc2ccc3ccccc3c2)NC(=O)C=Cc2c(F)c(F)c(F)c(F)c2F)C(C)(C)N1 (centres unmarked) :: 10 µM
CC1(C)CC(NC(=O)C(Cc2ccc3ccccc3c2)NC(=O)C=Cc2ccc(N)cc2)CC(C)(C)N1 (centres unmarked) :: >75 µM
CC1(C)CC(NC(=O)C(NC(=O)C=Cc2ccc(N)cc2)C2Cc3ccccc3C2)CC(C)(C)N1 (centres unmarked) :: 40 µM
CC1(C)CC(NC(=O)[C@@H](NC(=NC2CCCCC2)NC2CCCCC2)C2Cc3ccccc3C2)CC(C)(C)N1 :: >50 µM
CN(C(=O)[C@H](Cc1ccc(OCc2c(Cl)cccc2Cl)cc1)NC(=O)c1nc(Cl)c(Cl)c(N)c1Cl)C1CC(C)(C)NC(C)(C)C1 :: 1.4 µM

Qu. Specify MTT: ED50 for killing of SCLC strain SHP-77 in vitro for CN(C(=O)C=Cc1c(F)c(F)c(F)c(F)c1F)C(Cc1ccc(OCc2c(Cl)cccc2Cl)cc1)C(=O)NC1CC(C)(C)NC(C)(C)C1 (centres unmarked) and stop.
Ans. 3.7 µM

---

Listing: GPI: pA2 for bradykinin antagonist activity on isolated guinea pig ileum of selected compounds
Test system: bradykinin response of isolated guinea pig ileum
method notes: Anti-bradykinin activity on isolated guinea pig ileum
condition info: isolated guinea pig ileum; pD2 of bradykinin is 7.4; higher numbers indicate higher potency
Hey, just send me the number, nothing else.

Recorded GPI: pA2 for bradykinin antagonist activity on isolated guinea pig ileum, per entry:
CC1(C)CC(NC(=O)[C@H](Cc2ccc3ccccc3c2)NC(=O)C=Cc2c(F)c(F)c(F)c(F)c2F)CC(C)(C)N1 :: 6.2
CC1(C)CC(NC(=O)[C@H](Cc2ccc3ccccc3c2)NC(=O)C=Cc2ccc(NC(=O)CCCCCCCCCCC(=O)Nc3ccc(C=CC(=O)N[C@@H](Cc4ccc5ccccc5c4)C(=O)NC4CC(C)(C)NC(C)(C)C4)cc3)cc2)CC(C)(C)N1 :: 5.1

Qu. Specify GPI: pA2 for bradykinin antagonist activity on isolated guinea pig ileum for CC1(C)CC(NC(=O)[C@H](Cc2ccc3ccccc3c2)NC(=NC2CCCCC2)NC2CCCCC2)CC(C)(C)N1 and stop.
Ans. 6.8

Qu. Specify GPI: pA2 for bradykinin antagonist activity on isolated guinea pig ileum for CC1(C)CC(NC(=O)C(Cc2ccc3ccccc3c2)NC(=O)COc2c(F)c(F)c(F)c(F)c2F)CC(C)(C)N1 (stereo not shown) and stop.
Ans. 5.8

Qu. Specify GPI: pA2 for bradykinin antagonist activity on isolated guinea pig ileum for CC1(C)CC(NC(=O)[C@H](Cc2c(F)c(F)c(F)c(F)c2F)NC(=NC2CCCCC2)NC2CCCCC2)CC(C)(C)N1 and stop.
Ans. 5.1

Qu. Specify GPI: pA2 for bradykinin antagonist activity on isolated guinea pig ileum for O=C(O)c1ccc(NC(=O)C(Cc2ccc3ccccc3c2)NC(=NC2CCCCC2)NC2CCCCC2)cc1 (stereo not shown) and stop.
Ans. 4.7

Qu. Specify GPI: pA2 for bradykinin antagonist activity on isolated guinea pig ileum for CC1(C)CC(NC(=O)C(Cc2ccc3ccccc3c2)NC(=O)OC(C)(C)C)CC(C)(C)N1 (stereo not shown) [M288] and stop.
Ans. 5.2

---

Tested on: bradykinin response of isolated guinea pig ileum
method notes: Anti-bradykinin activity on isolated guinea pig ileum
condition info: isolated guinea pig ileum; pD2 of bradykinin is 7.4; higher numbers indicate higher potency
Method: In general, Anti-bradykinin activity was determined by the classical guinea pig ileum assay and on Chinese hamster ovary (CHO) cells expressing cloned human bradykinin B2 receptors. Anti-tumor activity was determined on cultured human cancer cell lines using the standard tetrazolium (MTT) assay. […]
Binary call on GPI: pA2 for bradykinin antagonist activity on isolated guinea pig ileum: label 1 from 5 upward, label 0 beneath that.

CC1(C)CC(NC(=O)C(CC(=O)O)NC(=O)Cc2ccc(NC(=O)C=Cc3ccc(C(F)(F)F)cc3)cc2)CC(C)(C)N1 (stereo not drawn) :: label 0
CC1(C)CC(NC(=O)[C@H](Cc2ccc3ccccc3c2)NC(=O)C(c2ccccc2)c2ccccc2)CC(C)(C)N1 :: label 1
CC1(C)CC(NC(=O)[C@H](Cc2ccc3ccccc3c2)NC(=O)C23CC4CC(CC(C4)C2)C3)CC(C)(C)N1 :: label 1
O=C(C=Cc1ccc(NC(=NC2CCCCC2)NC2CCCCC2)cc1)NCC(=O)Nc1cccc(C(=O)NC(Cc2ccc3ccccc3c2)C(=O)O)c1 (stereo not drawn) :: label 0
CC1(C)C=C(C(=O)NCCNC(=O)C(Cc2ccc3ccccc3c2)NC(=O)C=Cc2c(F)c(F)c(F)c(F)c2F)C(C)(C)N1 (stereo not drawn) :: label 1

Qu. Hello, I need to know if CC1(C)CC(NC(=O)[C@H](Cc2ccc3ccccc3c2)NC(=O)C2=CN3CCC2CC3)CC(C)(C)N1 has measured GPI: pA2 for bradykinin antagonist activity on isolated guinea pig ileum not below 5. Thanks!
Ans. label 0

Qu. Hello, I need to know if Cc1cc(NC(=O)C(Cc2ccc3ccccc3c2)NC(=O)C=Cc2c(F)c(F)c(F)c(F)c2F)c2ccccc2n1 (stereo not drawn) has measured GPI: pA2 for bradykinin antagonist activity on isolated guinea pig ileum not below 5. Thanks!
Ans. label 0

Qu. Hello, I need to know if CC1=C(CC(=O)NC(Cc2ccc3ccccc3c2)C(=O)NC2CC(C)(C)NC(C)(C)C2)c2cc(F)ccc2C1=Cc1ccc([S+](C)[O-])cc1 (stereo not drawn) has measured GPI: pA2 for bradykinin antagonist activity on isolated guinea pig ileum not below 5. Thanks!
Ans. label 1

Qu. Hello, I need to know if O=C(C=Cc1cccnc1)NC(Cc1ccc2ccccc2c1)C(=O)NC1CCCCC1 (stereo not drawn) has measured GPI: pA2 for bradykinin antagonist activity on isolated guinea pig ileum not below 5. Thanks!
Ans. label 0

Qu. Hello, I need to know if CC1(C)CC(NC(=O)[C@@H](N)Cc2ccc3ccccc3c2)CC(C)(C)N1 has measured GPI: pA2 for bradykinin antagonist activity on isolated guinea pig ileum not below 5. Thanks!
Ans. label 0

Qu. Hello, I need to know if CC1(C)CC(NC(=O)C(Cc2ccc3ccccc3c2)NC(=O)C=Cc2ccc(C(F)(F)F)cc2)CC(C)(C)N1 (stereo not drawn) has measured GPI: pA2 for bradykinin antagonist activity on isolated guinea pig ileum not below 5. Thanks!
Ans. label 1

Qu. Hello, I need to know if CC1(C)CC(NC(=O)C(Cc2ccc3ccccc3c2)NC(=O)c2nc(Cl)c(Cl)c(N)c2Cl)CC(C)(C)N1 (stereo not drawn) has measured GPI: pA2 for bradykinin antagonist activity on isolated guinea pig ileum not below 5. Thanks!
Ans. label 1
